Target: Gal4-HNF4α (human HNF4α LBD) (Homo sapiens)
Construct: uniprot entry: P41235-1, residues 142-377; expressed in transfected cells; host or cells: HEK293T
Sequence (P41235 142-377): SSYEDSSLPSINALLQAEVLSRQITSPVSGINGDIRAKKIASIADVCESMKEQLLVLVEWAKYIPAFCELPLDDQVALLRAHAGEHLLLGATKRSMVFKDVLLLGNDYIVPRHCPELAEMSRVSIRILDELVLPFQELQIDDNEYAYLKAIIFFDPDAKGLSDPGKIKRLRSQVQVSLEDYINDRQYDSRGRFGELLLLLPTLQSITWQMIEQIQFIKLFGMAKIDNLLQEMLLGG
Test: Hybrid Gal4-HNF4α reporter gene assay in transiently transfected HEK293T cells
Assay type: cell-based
Conditions: Table S1, primary screening, 50 µM
Labelling: HNF4a-screening_activity_(mean_of_n=2) reported below 1 becomes MET; at or above becomes NOT MET.

Qu. Find out if reported HNF4a-screening_activity_(mean_of_n=2) for c1cc2c(cc1OC[C@H]1CCCNC1)OCO2 [Prestw-Frag-2789, C(Oc1ccc2OCOc2c1)[C@H]1CCCNC1] is less than 1
Ans. NOT MET

Qu. Find out if reported HNF4a-screening_activity_(mean_of_n=2) for Clc1cccc(N2CCNCC2)c1Cl [Prestw-Frag-2853, Clc1cccc(N2CCNCC2)c1Cl] is less than 1
Ans. NOT MET

Qu. Find out if reported HNF4a-screening_activity_(mean_of_n=2) for Fc1ccc(CN2CCNCC2)cc1 [Prestw-Frag-3673, Fc1ccc(CN2CCNCC2)cc1] is less than 1
Ans. NOT MET

Qu. Find out if reported HNF4a-screening_activity_(mean_of_n=2) for Oc1ccc(Cc2ccccc2)cc1 [Prestw-Frag-3455, Oc1ccc(Cc2ccccc2)cc1] is less than 1
Ans. MET

Qu. Find out if reported HNF4a-screening_activity_(mean_of_n=2) for Cc1[nH]cnc1CO [Prestw-Frag-3752, Cc1[nH]cnc1CO] is less than 1
Ans. NOT MET

Qu. Find out if reported HNF4a-screening_activity_(mean_of_n=2) for Cn1ccc(=O)[nH]1 [Prestw-Frag-3664, Cn1ccc(=O)[nH]1] is less than 1
Ans. NOT MET

====

Target: Gal4-HNF4α (human HNF4α LBD) (Homo sapiens)
Construct: uniprot entry: P41235-1, residues 142-377; expressed in transfected cells; host or cells: HEK293T
Assay: Hybrid Gal4-HNF4α reporter gene assay in transiently transfected HEK293T cells
Type: cell-based
Conditions: Table S1, primary screening, 50 µM
Decide by HNF4a-screening_activity_(mean_of_n=2): equal to or exceeding 0.9 means MET, less means NOT MET.

Qu. Could you please find out whether O=C(O)c1ccccc1Nc1cccc(Cl)c1 [Prestw-Frag-1319, OC(=O)c1ccccc1Nc1cccc(Cl)c1] has HNF4a-screening_activity_(mean_of_n=2) that meets 0.9 or exceeds it?
Ans. NOT MET

Qu. Could you please find out whether O=C(O)CCCc1ccc(-c2ccccc2)cc1 [Prestw-Frag-1767, OC(=O)CCCc1ccc(cc1)-c1ccccc1] has HNF4a-screening_activity_(mean_of_n=2) that meets 0.9 or exceeds it?
Ans. NOT MET

Qu. Could you please find out whether O=C1CCc2ccc(O)cc2N1 [Prestw-Frag-2854, Oc1ccc2CCC(=O)Nc2c1] has HNF4a-screening_activity_(mean_of_n=2) that meets 0.9 or exceeds it?
Ans. MET

Qu. Could you please find out whether COc1ccccc1N1CCN(CCCN)CC1 [Prestw-Frag-2569, COc1ccccc1N1CCN(CCCN)CC1] has HNF4a-screening_activity_(mean_of_n=2) that meets 0.9 or exceeds it?
Ans. MET

Qu. Could you please find out whether c1ccc(-n2ccnc2)cc1 [Prestw-Frag-3744, c1cn(cn1)-c1ccccc1] has HNF4a-screening_activity_(mean_of_n=2) that meets 0.9 or exceeds it?
Ans. MET
